Cited source for all entries: PubChem BioAssay (NCI)

Provide the recorded growth for the entries that follow.
# Test system: COLO 205 colon
# Test: NCI-60 one-dose screen, 48 h (100 = growth as untreated, 0 = no growth, -100 = all killed)
# Condition notes: 10 µM unless noted
This is part of a sample that, as a whole, favours compounds with a hit. Of some 83,000 tested, about 20% had one in any assay. The source made the active and inactive calls. How the source made its calls: active means growth percent below 10; inactive means the rest.

Cc1ccc(C2=NN(c3ccc(S(N)(=O)=O)cc3)C(c3cn(-c4ccccc4)nc3-c3ccccc3)C2)cc1 (stereo not given) : 101% (inactive)
CCOC(=O)[C@H](CSSc1ncnc2cc[nH]c12)NC(=O)[C@@H](C)c1ccc2cc(OC)ccc2c1 : 3.67% (active)
CCCCCCc1nc2c(c(C)nn2-c2ccccc2)c2c1CCCCC2 : 107% (inactive)
COC1=CC(c2ccc[nH]2)=N/C1=C\c1[nH]c(C)c(C(=O)CCCCC(=O)Oc2ccc3c(c2)CCC2C3CC[C@]3(C)[C@@H](O)CC[C@@H]23)c1C (stereo not given in full) : 94.6% (inactive)
COc1cc(CCn2nnc3c(NCCCCO)ncnc32)cc(OC)c1 : 109% (inactive)

For each of the compounds below, state growth.
1. CC(Br)C(Br)c1cc2c(cc1Br)OCO2 (stereo not given)
2. C=C1C(=O)O[C@H]2[C@H]1CC/C(Cn1cc(-c3ccccc3C(F)(F)F)nn1)=C\CC[C@@]1(C)O[C@@H]21
3. CCCCn1c(=O)c(C2CNC(=O)c3ccccc3N2)cc2ccccc21 (stereo not given)

1. 90.2% (inactive)
2. -78.8% (active)
3. 111% (inactive)

Take each entry in turn and give its growth.
1. CC/C=C\C[C@H]1C/C=C2/C(=O)C(Cl)=C[C@@H]2C/C=C\CCCC(=O)O1
2. COC(=O)c1ccc(C)cc1
3. CCOP(=O)(CCN1CCN(CCCCCOc2cc3c(cc2OC)C(=O)N2CCC[C@H]2C=N3)CC1)OCC

["-59.9% (active)", "106% (inactive)", "71.4% (inactive)"]

Could you tell me growth for each of these compounds? They are listed below.
1. CN1CCN(c2ccc3cc(-c4nc5ccccc5[nH]4)c(=O)oc3c2)CC1
2. O=S(=O)(NCCNc1nccc(-c2c(-c3ccccc3)nc3sccn23)n1)c1ccc(O)cc1
3. CC1Cc2c(N(C)C)ncnc2N(C)c2ccc(Cl)cc21 (stereo not given)

1. 92.4% (inactive)
2. 28.5% (inactive)
3. 36% (inactive)

Lab note: each compound below needs its growth filled in.
1. O=C(Nc1cc(C(F)(F)F)cc(C(F)(F)F)c1)Nc1ccc(OCc2nnc(-c3ccc(Cl)cc3)o2)c(F)c1
2. CC(=O)n1cc([C@H]2CC[C@H](c3cn(C(C)=O)c4ccccc34)c3c2[nH]c2ccccc32)c2ccccc21
3. Nc1cccc2c1CN(C1CCC(=O)NC1=O)C2=O (stereo not given)
4. c1ccn2nnnc2c1
5. CC(Br)C(OC(=O)c1ccccc1Cl)c1cc2c(cc1Br)OCO2 (stereo not given)
6. CCC(c1ccc(OC)cc1)C(CC)c1ccc(O)c(CN2CCCC2)c1 (stereo not given)

["-84.7% (active)", "94.5% (inactive)", "111% (inactive)", "90.6% (inactive)", "126% (inactive)", "-85% (active)"]

---

# System: SR leukemia
# Test: NCI-60 one-dose screen, 48 h (100 = growth as untreated, 0 = no growth, -100 = all killed)
# Condition notes: 10 µM unless noted
The panel holds about 83,000 compounds, 20% with a hit somewhere; the sample as a whole holds those more often.
Would you mind telling me the reported growth of each entry?
Numbers only, in %.

Consider the following illustrative entries.
CN=S(=O)(NC(=O)c1ccc(Cl)cc1Cl)c1ccc(Br)s1 (configuration not stated) : 94.3
CC1=NN2C(=NC3=C(CCC/C3=C\c3ccc(Cl)cc3)C2c2ccc(Cl)cc2)S1 (configuration not stated) : 64.5
CCCCCC(=O)OCc1ccccc1 : 85.4
O=C(O)C(Cc1ccccc1)N1C(=O)/C(=C/C(Cl)=C/c2ccc([N+](=O)[O-])cc2)SC1=S (configuration not stated) : 5.32
Cc1oc2ncnc(Nc3ccccc3)c2c1C(=O)NCCO : 52.2
O=C(O)c1cccc([N+](=O)[O-])c1/C=C/c1ccccc1 : 85.2

Provide each entry's growth from the list below.
1. O=S(=O)(NCCNc1nccc(-c2c(-c3ccccc3)nc3sccn23)n1)c1ccc(O)cc1
2. COc1ccc(C2SCC(=O)N2NC(=O)c2ccc(NC(=O)c3ccccn3)cc2)cc1OC (configuration not stated)

1: 18.2; 2: 90.9

Hey, quick one: what's growth for each of these?
1. Cc1ccc2nc(-c3c(N)n[nH]c3CCCO)[nH]c(=O)c2c1
2. COc1cc2c3c(c(=O)oc2cc1OS(=O)(=O)c1ccc(C(F)(F)F)cc1)CCCCC3
3. O=C(/C=C/CN1CCOCC1)Nc1cc2c(Nc3ccc(F)c(Cl)c3F)ncnc2cc1OCCOC(F)F
4. NC(=S)NN=C1CCCCC1

1: 77.2; 2: 58.6; 3: 60.7; 4: 72.1

Respectfully, I request growth for each entry included below.
1. C/C(=N\NC(=O)CC#N)c1cc2cc(Cl)ccc2o1
2. Cc1ccc2nc(-c3c(CCCO)noc3N)[nH]c(=O)c2c1
3. O=C(NCCc1c[nH]c2ccccc12)C1Cc2ccccc2CN1C(=O)c1ccco1 (configuration not stated)

[84.8, 71.8, 65.5]

Hi there! I need growth for each item below, if you can.
1. COc1cc(Br)c(OC)cc1Br
2. CCN(Cc1ccc(CN(CC)C(=O)C(Cl)(Cl)Cl)cc1)C(=O)C(Cl)(Cl)Cl
3. CCOC(=O)/C=C\C(=O)NC(N)=O
4. CC(=O)Oc1cccc(OC(C)=O)c1OC(C)=O
5. CN(C)c1ccc(C2CC(c3ccccc3)=NN2/C=C2\SC(=O)NC2=O)cc1 (configuration not stated)
6. COc1ccc(-c2nc3sccn3c2-c2ccnc(NCCNS(=O)(=O)c3ccc(C(F)(F)F)cc3)n2)cc1
7. CCN(CC)P(=O)(N(CC)CC)N(CCCSC/C=C(\C)CC/C=C(\C)CCC=C(C)C)CCCN1CCN(C)CC1

111
32.8
97.3
89.6
50.8
11.6
22.9

---

# System: SN12C renal
# Test: NCI-60 one-dose screen, 48 h (100 = growth as untreated, 0 = no growth, -100 = all killed)
# Condition notes: 10 µM unless noted
This is part of a sample that, as a whole, favours compounds with a hit. Of some 83,000 tested, about 20% had one in any assay. Activity calls are given as the source filed them. How the source made its calls: active means growth percent below 10; inactive means the rest.
Measured quantity: growth

The cases that follow already have their growth on record.
O=[N+]([O-])c1ccc(S(=O)(=O)N2CCN(c3ccnc4cc(Cl)ccc34)CC2)c([N+](=O)[O-])c1 : 88.2% (inactive)
COc1ccc(C2NC3=C(CCCC3)C(C#N)(C#N)C2(C#N)C#N)cc1 (configuration not stated) : 88.7% (inactive)

State recorded growth for all listed compounds.
1. CCc1c(C(=O)Nc2ccc3ccccc3c2)[nH]c(C)c1C(C)=O
2. Cc1oc2ncnc(Nc3ccccc3)c2c1C(=O)NCCO
3. Cc1cc(NC(=O)COC(=O)c2sc3cc(F)ccc3c2Cl)no1
4. CN(C)c1nc(N)c(N=O)c(N)n1

1. 96.6% (inactive)
2. 93.2% (inactive)
3. 107% (inactive)
4. 110% (inactive)

State the recorded growth for every item in the following list.
1. COc1ccc2c(c1)NC(=O)CN2c1nc(NC2CC2)nc2ccccc12
2. Cc1ccc2c(c1)C(C)Cc1c(N(C)C)ncnc1N2C (configuration not stated)

1. 39.1% (inactive)
2. 44.9% (inactive)

---

# System: HCT-15 colon
# Test: NCI-60 one-dose screen, 48 h (100 = growth as untreated, 0 = no growth, -100 = all killed)
# Condition notes: 10 µM unless noted
# Experimental: Growth inhibition of the HCT-15 human tumor cell line is measured as a screen for anti-cancer activity. Cells are grown in 96 well plates and exposed to the test compound for 48 hours. Compounds are tested at a single concentration, which is 10^-5 M for most compounds. The reported endpoint is percent growth (GI% or GIPRCNT), where numbers from 0 - 100% represent growth inhibition, and numbers from -100% - 0 represent cell death. For example, a value of 40 represents 60% growth inhibition. […]
About 83,000 compounds went through this panel and 20% of them were active in at least one assay; those are over-represented in the sample as a whole.
Measured quantity: growth (%)
Give bare numbers, in %.

Record growth for all entries; do not skip any.
1. NS(=O)(=O)c1ccc(NCC(=O)Nc2ccc(-c3nc4ccccc4s3)cc2)cc1
2. Nc1nc(N)c2nc(CNc3ccc(C(=O)CC(CCC(=O)O)C(=O)O)cc3)cnc2n1 (centres undefined)
3. COc1ccc(-n2c(C)cc(-c3ccccc3)c2C)cc1

1: 46.6; 2: 33.3; 3: 37.9

Below are 6 molecules. Give each one its growth.
1. CC(=O)n1cc([C@H]2CC[C@H](c3cn(C(C)=O)c4ccccc34)c3c2[nH]c2ccccc32)c2ccccc21
2. c1ccc([P+](CCC[P+](c2ccccc2)(c2ccccc2)c2ccccc2)(c2ccccc2)c2ccccc2)cc1
3. COc1c(NC[C@H]2OC(O)[C@H](O)[C@@H](O)[C@@H]2O)c(=O)c1=O (some centres undefined)
4. NS(=O)(=O)c1ccc(CN2C(=O)c3cccc4cccc(c34)C2=O)cc1
5. CCCCCC/C=C\CCCCCCCCOc1ccc(CCOP(=O)(O)OCC[N+](C)(C)C)cc1
6. Cc1nc(Nc2cccnc2)sc1C(=O)/C=C/c1ccc(F)cc1

1. 58.7
2. 101
3. 107
4. 88.5
5. 85
6. 20.4
